Conditions: in ethylene glycol, 303.15 K
REPORTED ENDPOINT: solubility (mole fraction)
Form field (numeric): enter value without unit.

// solubility (mole fraction) lookup, key: `CCCCS(=O)(=O)N[C@@H](Cc1ccc(OCCCCC2CCNCC2)cc1)C(=O)O`
0.000109

* * *

Conditions: in isopropanol, 303.15 K
REPORTED ENDPOINT: solubility (mole fraction)

solubility (mole fraction) for `CCCCS(=O)(=O)N[C@@H](Cc1ccc(OCCCCC2CCNCC2)cc1)C(=O)O` ?
0.000176

* * *

Details: in isopropanol, 293.15 K
REPORTED ENDPOINT: solubility (mole fraction)
Output spec: single numeric token, no unit.

Please look up its solubility (mole fraction): `CCCCS(=O)(=O)N[C@@H](Cc1ccc(OCCCCC2CCNCC2)cc1)C(=O)O`
0.00013

* * *

Conditions: in water, 308.15 K
REPORTED ENDPOINT: solubility (mole fraction)
API doc: respond with a numeric literal and nothing else, no unit.

Requested read-out: solubility (mole fraction). Entry: `CCCCS(=O)(=O)N[C@@H](Cc1ccc(OCCCCC2CCNCC2)cc1)C(=O)O`
2.42e-06

* * *

Conditions: in water, 303.15 K
REPORTED ENDPOINT: solubility (mole fraction)

Could you share which solubility (mole fraction) value was measured for `CCCCS(=O)(=O)N[C@@H](Cc1ccc(OCCCCC2CCNCC2)cc1)C(=O)O` ?
2.08e-06

* * *

Conditions: in isopropanol, 313.15 K
REPORTED ENDPOINT: solubility (mole fraction)
Answer as a number with no unit attached.

Please give the measured solubility (mole fraction) for this compound: `CCCCS(=O)(=O)N[C@@H](Cc1ccc(OCCCCC2CCNCC2)cc1)C(=O)O`
0.00023
